# measuredOn: T1, human CLDN18.2 (human)
# T1 construct: over-expressed on HEK293T or OCUM-1 cells by lentivirus; KATO-III and NUGC4 gastric cancer cells express it naturally; also called hCLDN18.2; hCLDNA18.2
# assayProtocol: imaging cytometry (% fluorescent cells), OCUM1-hCLDN18.2 cells
measuredProperty: EC50 (µg/mL)
Number in µg/mL, nothing else.

Would you mind telling me what EC50 value was observed for 2F12 (antibody, V domains shown, murine monoclonal antibody purified from hybridoma culture supernatant) VH: EVQLVESGGGLVKPGGSLKLSCAASGFTFSDYGIHWVRQAPEKGLEWVAYISSGSSTIYYADTVKGRFTISRDNAKNTLFLQMTSLRSEDTAIYYCAKWDRGNCFDYWGQGTTLTVSS VL: DIVLTQSPSSLTVTAGEKVTMSCKSSQSLLNSGNQKKYLTWYQQKVGQPPKLLIYWASIRECGVPDRFTGSGSGTDFILTISSVQAEDLAVYYCQNAYSYPLTFGAGTKLELK ? 0.186
